Form field: growth (one value per entry).
# Test system: CAKI-1 renal
# PROTOCOL NOTES: NCI-60 one-dose screen, 48 h (100 = growth as untreated, 0 = no growth, -100 = all killed)
# CONDITION DETAILS: 10 µM
About 83,000 compounds went through this panel and 20% of them were active in at least one assay; those are over-represented in the sample as a whole. Active and inactive are the calls of the source. The calls were made as follows: active = growth percent below 10; inactive = the rest.
REPORTED ENDPOINT: growth

>>> result("CC(C)N(CCOc1cccc(-c2nc3sccn3c2-c2ccnc(S(C)(=O)=O)n2)c1)C(C)C")
"93.3% (inactive)"
>>> result("COc1cc(/C=C2\\CCCC3C2=Nc2ccccc2NC3c2cc(OC)c(OC)c(OC)c2)cc(OC)c1OC (stereo not given)")
"6.51% (active)"
>>> result("COc1cc2c(cc1NC(=O)C(F)(F)F)-c1ccc(NC(=O)C(F)(F)F)cc1C2")
"96.9% (inactive)"
>>> result("Cc1cc(=O)n2nnc3cc(C(F)(F)F)ccc3n12")
"113% (inactive)"
>>> result("CCCCCCCCCCCCCCCCCC[n+]1ccc2c(C)c3c(c(C)c2c1)c1cc(O)ccc1n3CC")
"71.1% (inactive)"
>>> result("COc1cc2cc(Oc3ccc(NC(=O)c4cccc(C(F)(F)F)c4)cc3)c(C)nc2cc1OC")
"13.3% (inactive)"
>>> result("CCCCC1(O)CCCCC1")
"96.1% (inactive)"
>>> result("COc1cc(-c2nc3ccccc3o2)cc(CN2CCCCC2)c1O")
"85.2% (inactive)"
>>> result("CNS(=O)(=O)Oc1ccc(-c2sc3cc(OS(=O)(=O)NC)ccc3c2C(=O)c2ccc(OCCN3CCCCC3)cc2)cc1")
"59.3% (inactive)"
>>> result("COc1ccc2c(c1)C(=O)/C(=C/c1ccc([N+](=O)[O-])o1)O2")
"-69.8% (active)"

====

# Test system: UO-31 renal
# PROTOCOL NOTES: NCI-60 one-dose screen, 48 h (100 = growth as untreated, 0 = no growth, -100 = all killed)
# CONDITION DETAILS: 10 µM
About 83,000 compounds went through this panel and 20% of them were active in at least one assay; those are over-represented in the sample as a whole.
REPORTED ENDPOINT: growth (%)

>>> numeric_value("O=C(CCn1cnc2c(cc(-c3ccccc3)n2-c2ccccc2)c1=O)Nc1ccc(F)cc1")
75
>>> numeric_value("c1cncc(-c2csc(-c3c[nH]c4ccccc34)n2)c1")
66.5
>>> numeric_value("COc1ccc(C2CC(c3cc(OC)c(OC)c(OC)c3)=NN2)cc1 (stereo not given)")
62.7
>>> numeric_value("COc1cc2c3c(n(C4CCN(C)CC4)c(=O)c2cc1OC)-c1cc2c(cc1C3=O)OCO2")
52.4
>>> numeric_value("COc1ccccc1N1CCCSC1=Nc1ccccc1")
81.2
>>> numeric_value("CC(=O)Nc1cc2c(cc1Cl)Cc1cc(Cl)ccc1-2")
65.4
>>> numeric_value("C/C=C/C1=CN2C(=O)c3cc(OC4OC(C)C(NC)C(C)(O)C4O)c(C)c(O)c3N=C[C@@H]2C1 (stereo not given in full)")
-44.5
>>> numeric_value("Cc1nn(-c2ccc(-c3ccc(OC(F)(F)F)cc3)cc2)c2nc(Cc3ccccc3)nc(N)c12")
28.3
>>> numeric_value("O=C(Nc1ccc(OS(=O)(=O)c2ccccc2)cc1)C1CCCCC1")
96.7
>>> numeric_value("COc1ccc(-c2cc(-c3ccc(Cl)cc3)nc(SCCCC(=O)NO)n2)cc1OC")
-53.2
